- Measurement Target: AsPC-1 HiBiT-KRASG12D (Homo sapiens, UniProt P01116, G12D)
- Construct: insert the HiBiT tag onto the N-terminus of one or more of the endogenous KRAS alleles; endogenous in cells; host or cells: AsPC-1 (ATCC CRL-1682), CRISPR-Cas9 knock-in clone, one tagged allele
- Sequence (P01116 1-188 isoform P01116-2 G12D): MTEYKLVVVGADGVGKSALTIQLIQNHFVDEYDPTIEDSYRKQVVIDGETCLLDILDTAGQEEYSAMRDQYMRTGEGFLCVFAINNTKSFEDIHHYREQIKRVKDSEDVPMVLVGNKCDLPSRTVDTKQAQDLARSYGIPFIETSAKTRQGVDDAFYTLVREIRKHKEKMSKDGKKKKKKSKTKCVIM
- Procedure Text: HiBiT degradation assay (G12D), AsPC-1 HiBiT-KRASG12D cells
- Type: cell-based
- Details: ASPC1, AsPC-1 HiBiT-KRASG12D cells, 24 hours treatment, maximum degradation observed
Dmax reference
Measurement Name: Dmax

Molecule | Result
CCc1cccc2cc(O)cc(-c3ncc4c(N5CC6CCC(C5)N6)nc(OCCN5CCC(F)(CN6CCN(c7cnc(C(=O)N[C@H](C(=O)N8C[C@H](O)C[C@H]8C(=O)N[C@@H](C)c8ccc(-c9scnc9C)cc8)C(C)(C)C)cn7)CC6)CC5)nc4c3F)c12 [Compound 155] | 60 to 80%
CCc1cccc2cc(O)cc(-c3ncc4c(N5CC6CCC(C5)N6)nc(OCCN5CCC(CC6(F)CN(CC(=O)N[C@H](C(=O)N7C[C@H](O)C[C@H]7C(=O)N[C@@H](C)c7ccc(-c8scnc8C)cc7)C(C)(C)C)C6)CC5)nc4c3F)c12 [Compound 263] | 80 to 100%
CCc1cccc2cc(O)cc(-c3ncc4c(N5CC6CCC(C5)N6)nc(OC[C@H]5CN(CC6CN(c7cc([C@H](C(=O)N8C[C@H](O)C[C@H]8C(=O)N[C@@H](C)c8ccc(-c9scnc9C)cc8)C(C)C)on7)C6)CCN5C)nc4c3F)c12 [Compound 162] | 20 to 60%
C#Cc1c(F)ccc2cc(O)cc(-c3ncc4c(N5CC6CCC(C5)N6)nc(OCCN5CCC(F)(CN6CCN(c7cc([C@H](C(=O)N8C[C@H](O)C[C@H]8C(=O)N[C@@H](C)c8ccc(-c9scnc9C)cc8)C(C)C)on7)CC6)CC5)nc4c3F)c12 [Compound 172] | 80 to 100%
CCc1cccc2cc(O)cc(-c3ncc4c(N5CC6CCC(C5)N6)nc(OCCN5CCN(c6cc([C@H](C(=O)N7C[C@H](O)C[C@H]7C(=O)N[C@@H](C)c7ccc(-c8scnc8C)cc7)C(C)C)on6)CC5)nc4c3F)c12 (relative stereo) [Compound 134] | 20 to 60%
Cc1ncsc1-c1ccc([C@H](C)NC(=O)[C@@H]2C[C@@H](O)CN2C(=O)[C@@H](c2cc(N3CC4(CCN(CCOc5nc(N6CC7CCC(C6)N7)c6cnc(-c7cc(O)cc8ccc(F)c(F)c78)c(F)c6n5)CC4)C3)no2)C(C)C)cc1 (relative stereo) [Compound 68] | 80 to 100%
C#Cc1cccc2cc(O)cc(-c3ncc4c(N5CC6CCC(C5)N6)nc(OCCN5CCC6(CC5)CN(c5cc([C@H](C(=O)N7C[C@H](O)C[C@H]7C(=O)N[C@@H](C)c7ccc(-c8scnc8C)cc7)C(C)C)on5)C6)nc4c3F)c12 [Compound 36] | 80 to 100%
CCc1cccc2cc(O)cc(-c3ncc4c(N5CC6CCC(C5)N6)nc(OCCN5CCC6(CC5)CC(Oc5cc([C@@H](C(=O)N7C[C@H](O)C[C@H]7C(=O)N[C@@H](C)c7ccc(-c8scnc8C)cc7)C(C)C)on5)C6)nc4c3F)c12 [Compound 232] | 20 to 60%
